The following compounds are shown together with reported melting point values.

Use the examples below as a reference point.
• OC(Cn1cncn1)c1ccc(Cl)cc1 (stereo unspecified) = 111 to 113 °C
• O=C(c1ccc(Cl)cc1)c1cccnc1 = 87 to 89 °C
• CSc1nc(NC(C)=O)n(C(C)=O)n1 = 226 to 228 °C

The reported value for O=C(Nc1ccc(F)cc1)NC1CCNCC1 in terms of melting point is 183 to 185 °C

For this compound ( CCNc1nc(C)c(C(=O)O)s1 ), measured melting point is 171 to 173 °C

###

Attribute: melting point

• N#Cc1ccc(Oc2ccc(C(=O)O)cc2)nc1 = 246 to 248 °C

Memo: Nc1nc(Cl)c(C=O)c(N2CCOCC2)n1 , reported melting point: 173 to 175 °C

Reported melting point for CC(=O)C(C#N)c1c(Cl)cccc1Cl (stereo not drawn) was 49 to 51 °C

Values were extracted from a melting point compilation (Tetko et al.).
